molecular target: Neurogenic locus notch homolog protein 2 (Homo sapiens); assay: Notch2 binders on small-molecule microarrays, primary screen, biochemical, small-molecule microarray, 635 nm fluorescence, stem cell growth factors (AID 1073); conditions: Notch2 binding, higher = more signal
experimentalEndpoint: composite z-score
Give only the figure.

# annotated cases, reported composite z-score shown
compound: C=CCC(OC(C)=O)[C@@H]1[C@@H](N(Cc2ccc(-c3ccccc3)cc2)C(=O)c2ccc(-c3ccccc3)cc2)c2cc(OCCCO)ccc2N1C(=O)Cc1ccc2ccccc2c1 (some centres undefined)
measurement: 0.186

compound: OCCCC1=CC(c2cccs2)N(Cc2cc3c(cc2Br)OCO3)CC1 (centres undefined)
measurement: -0.242

compound: COC(=O)[C@H](Cc1ccccc1)N[C@@H](/C=C/C1CC1)[C@H](O)Cc1ccccc1
measurement: -1.08

Query: Look up and report measured composite z-score for this entry: Cc1ccc(S[C@]2(C(=O)NCCCN(C)C)CC(=O)N(Cc3ccccc3C(F)(F)F)[C@@H]2c2ccc(CO)cc2)cc1
Response: -1.37
